Cited source for all entries: PubChem BioAssay

Documented inhibition across a set of compounds
Biological target: Nuclear receptor coactivator 1 (Homo sapiens) (UniProt Q15788)
Sequence (Q15788 whole entry, looked up): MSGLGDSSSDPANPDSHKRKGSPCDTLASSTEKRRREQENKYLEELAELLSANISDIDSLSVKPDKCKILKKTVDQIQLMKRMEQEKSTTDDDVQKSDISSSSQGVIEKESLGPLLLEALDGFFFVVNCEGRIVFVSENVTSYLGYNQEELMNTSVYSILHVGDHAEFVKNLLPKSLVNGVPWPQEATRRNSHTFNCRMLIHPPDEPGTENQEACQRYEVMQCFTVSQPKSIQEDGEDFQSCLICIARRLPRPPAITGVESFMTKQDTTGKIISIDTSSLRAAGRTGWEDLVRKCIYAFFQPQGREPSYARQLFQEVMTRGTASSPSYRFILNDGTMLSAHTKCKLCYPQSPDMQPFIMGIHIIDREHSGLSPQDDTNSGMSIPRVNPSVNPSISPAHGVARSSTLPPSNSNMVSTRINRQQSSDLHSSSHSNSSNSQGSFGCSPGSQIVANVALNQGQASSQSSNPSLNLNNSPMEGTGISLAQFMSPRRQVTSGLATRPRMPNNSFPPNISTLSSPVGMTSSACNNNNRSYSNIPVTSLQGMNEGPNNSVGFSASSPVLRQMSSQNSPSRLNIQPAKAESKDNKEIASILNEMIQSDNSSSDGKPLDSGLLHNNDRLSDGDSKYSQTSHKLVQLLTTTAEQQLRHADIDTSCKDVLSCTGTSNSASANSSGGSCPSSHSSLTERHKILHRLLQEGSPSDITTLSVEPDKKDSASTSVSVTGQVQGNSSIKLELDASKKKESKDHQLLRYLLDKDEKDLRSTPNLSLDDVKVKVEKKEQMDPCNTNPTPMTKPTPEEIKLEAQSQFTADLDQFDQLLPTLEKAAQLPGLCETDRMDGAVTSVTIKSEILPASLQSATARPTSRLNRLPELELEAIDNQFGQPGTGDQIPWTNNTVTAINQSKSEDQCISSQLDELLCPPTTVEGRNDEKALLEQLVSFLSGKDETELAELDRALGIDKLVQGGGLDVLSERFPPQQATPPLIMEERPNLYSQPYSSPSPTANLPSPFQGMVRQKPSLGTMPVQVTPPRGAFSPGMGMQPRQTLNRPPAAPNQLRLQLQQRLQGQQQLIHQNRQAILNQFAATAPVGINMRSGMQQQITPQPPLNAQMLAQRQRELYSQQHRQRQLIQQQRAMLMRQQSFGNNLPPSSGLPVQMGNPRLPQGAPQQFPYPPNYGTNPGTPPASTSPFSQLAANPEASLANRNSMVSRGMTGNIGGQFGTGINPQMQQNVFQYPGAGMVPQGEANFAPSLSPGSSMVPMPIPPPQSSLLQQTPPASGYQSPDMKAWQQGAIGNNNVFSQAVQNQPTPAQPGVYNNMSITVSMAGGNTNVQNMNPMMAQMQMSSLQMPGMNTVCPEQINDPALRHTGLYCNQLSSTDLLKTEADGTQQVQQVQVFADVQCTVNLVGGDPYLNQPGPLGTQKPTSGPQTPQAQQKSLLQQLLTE
Test: SRC1 coactivator transcriptional activity inhibitors, confirmation, cell-based, luminescence, quadruplicate (AID 588820);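 also: 0% = DMSO wells and 100% = gossypol 36 µM treated wells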
Settings: HEK293 GAL4-SRC1 luciferase reporter, at 3.6 µM, stronger effect = higher value
Give the quantity in %, number only.

Sample records with inhibition:
# COMPOUND, PROPERTY_MEASURED, UNIT_LABEL, RECORDED_VALUE
rows = [
    ("CCOC(=O)c1ccc(NC(=O)c2ccc(C)c(S(=O)(=O)N3CCOCC3)c2)cc1", "inhibition", "%", 3.47),
    ("CCN(CC)CCn1c2ccccc2c2cnc(N)c(C#N)c21", "inhibition", "%", 30.1),
    ("CCOc1c(Br)cc(CNc2ccc3c(c2)OCCO3)cc1OC", "inhibition", "%", -25.8),
    ("Cc1cc(OCC(O)CN2CCc3ccccc3C2)cc(C(C)C)c1 (configuration not stated)", "inhibition", "%", -16.6),
    ("CC(C)c1ccc2c(c1)C(N1CCN(C)CC1)Cc1cccnc1S2 (configuration not stated)", "inhibition", "%", 6.3),
]

Lab entry: Nuclear receptor coactivator 1 (Homo sapiens) (UniProt Q15788) assay, compound Cc1ccc(C(C(=O)NCc2ccccc2)N(Cc2cccs2)C(=O)c2ccc3c(c2)OCCO3)cc1 (configuration not stated) , inhibition = -21.8

Record COc1ccc(C(=O)N/N=C/c2cc(Br)ccc2O)cc1OC ; system Nuclear receptor coactivator 1 (Homo sapiens) (UniProt Q15788); inhibition = 22

# value of inhibition, Nuclear receptor coactivator 1 (Homo sapiens) (UniProt Q15788), item CC1Sc2ccc(Cl)cc2-c2nc(N)ncc21 (configuration not stated) = 48.2

Form field inhibition for item CN(C)S(=O)(=O)c1ccc(Cl)c(NC(=O)CN2C(=O)NC(C)(C3CC3)C2=O)c1 (configuration not stated) on Nuclear receptor coactivator 1 (Homo sapiens) (UniProt Q15788): -2.39

Entry CC(C)n1cc(/C=C/c2cc[n+](C)cc2)c2ccccc21 : inhibition on Nuclear receptor coactivator 1 (Homo sapiens) (UniProt Q15788) = 16.8

Given the compound Cn1c(CC(=O)Nc2ccc(Cl)c(Cl)c2)nnc1SCC(=O)N1CCN(c2ccccc2)CC1 and test system Nuclear receptor coactivator 1 (Homo sapiens) (UniProt Q15788), the measured inhibition is 9.04

Reported inhibition (Nuclear receptor coactivator 1 (Homo sapiens) (UniProt Q15788)) for entry O=C(Nc1ccon1)c1nc[nH]c1C(=O)NCc1ccccc1 is 27.6

* * *

Test: VP16 transactivation reporter inhibitors, counter-screen for LRH-1 inverse agonist project, cell-based, luminescence, high throughput (AID 651615)
Conditions: Gal4-VP16 luciferase reporter cells, at 3.6 µM
Activity calls are given as the source filed them. Rule as the data show it: active = inhibition above about 33%; inactive = the rest. Bridge positions count the residues as written; N and C are the ends. Square brackets hold non-standard residues; d marks the D form. Peptide text beside a SMILES is read from it.
Parameter call: string, one of active, inactive

// known answers, use as guide
# MOLECULE, CAT
records = [
    ("CCOc1ccc(NC(=O)CN2C(=O)NC(C)(c3ccc(OC(F)F)cc3)C2=O)cc1 (centres undefined)", "inactive"),
    ("CCOCc1c(C(=O)Nc2ccccc2N2CCN(C)CC2)oc2ccccc12", "inactive"),
]

# outcome recorded in this test, key = CC[C@H](C)[C@@H]1NC(=O)[C@@H](CC(C)C)NC(=O)[C@H](C(C)C)NC(=O)[C@H]2CSSC[C@H](NC1=O)C(=O)N2 (cyclo(C[dC]V[dL]I); disulfide 1-2)
active

Which outcome was entered for the molecule COc1cc([N+](=O)[O-])ccc1NC(=O)Cn1ccsc1=N in this test?
inactive

Name the outcome recorded for Cc1ccc(C(O)(C(=O)NN(C(=O)c2ccccc2)c2ccccc2)c2ccc(C)cc2)cc1 in the assay.
inactive

Called result for CC(C)OC(=O)C(=O)NNc1ccccc1
inactive

What outcome does the record of this test show for Cc1cc(NC(=O)CSc2nc3c(sc4ccccc43)c(=O)n2CCCN2CCOCC2)n[nH]1 ?
inactive

Recorded call for O=C(Nc1nccs1)c1ccc(S(=O)(=O)NCC2CCCCC2)cc1 ?
active

Which outcome was entered for the molecule Cc1ccc(NC(=O)O/N=C/c2c(C)nn(C(C)(C)C)c2C)cc1Cl in this test?
active
